systemUnderTest: T1, Tumor-associated calcium signal transducer 2 (UniProt P09758 27-323, limits assumed)
T1 sequence (looked up): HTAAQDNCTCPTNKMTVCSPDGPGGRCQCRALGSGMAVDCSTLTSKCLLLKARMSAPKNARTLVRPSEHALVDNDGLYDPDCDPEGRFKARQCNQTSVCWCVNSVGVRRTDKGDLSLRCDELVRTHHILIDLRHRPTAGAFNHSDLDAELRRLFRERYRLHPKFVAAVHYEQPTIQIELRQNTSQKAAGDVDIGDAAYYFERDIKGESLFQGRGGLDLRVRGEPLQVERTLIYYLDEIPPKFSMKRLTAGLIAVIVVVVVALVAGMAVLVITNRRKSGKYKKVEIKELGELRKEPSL
assayInfo: cell-based or functional assay
quantityMeasured: IC50 (nM), in vitro killing activity, MDA-MB-468 Cell
The reply should contain only the number, in nM.

INSERT INTO results (binder, measuredresult) VALUES
  ('FDA018-LE17 (antibody, human IgG1, kappa, V domains shown, linker-drug LE17 coupled to cysteine sulfhydryl groups after reduction of the interchain disulfide bonds; DAR 3.98 for the whole antibody; sites not stated) VH: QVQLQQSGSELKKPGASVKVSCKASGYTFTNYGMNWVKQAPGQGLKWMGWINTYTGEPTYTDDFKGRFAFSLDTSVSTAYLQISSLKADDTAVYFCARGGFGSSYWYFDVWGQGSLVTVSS VL: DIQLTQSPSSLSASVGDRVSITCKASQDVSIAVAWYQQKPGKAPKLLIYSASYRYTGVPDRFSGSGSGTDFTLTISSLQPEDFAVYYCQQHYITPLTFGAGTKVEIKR', 0.82);

Now look at this one.
Query :: Requested read-out: IC50 (nM), in vitro killing activity, MDA-MB-468 Cell. Entry: FDA018-LE15 (antibody, human IgG1, kappa, V domains shown, linker-drug LE15 coupled to cysteine sulfhydryl groups after reduction of the interchain disulfide bonds; DAR 4.12 for the whole antibody; sites not stated) VH: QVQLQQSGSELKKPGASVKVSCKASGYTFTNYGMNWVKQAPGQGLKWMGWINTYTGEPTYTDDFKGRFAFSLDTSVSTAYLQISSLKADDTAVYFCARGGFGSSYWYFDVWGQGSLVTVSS VL: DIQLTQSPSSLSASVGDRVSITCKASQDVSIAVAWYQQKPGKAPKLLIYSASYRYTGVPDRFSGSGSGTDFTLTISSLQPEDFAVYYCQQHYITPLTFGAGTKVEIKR
Result :: 0.93
